B1: tRNA (parent)
chain: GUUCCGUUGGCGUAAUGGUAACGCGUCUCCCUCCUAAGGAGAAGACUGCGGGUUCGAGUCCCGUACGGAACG

- Variants of: B1
- protocol-summary: yeast fitness relative to wild type (ratio to wild type); higher = fitter; tRNA-Arg(CCU), competitive growth, 37 C, YPD
This sample holds only a part of the variants without activity.
experimental-readout: yeast fitness
Answer with a bare number; do not write a unit.

Field: example entries. Status: answers known.
# mutation, yeast fitness
rows = [
    ("U3C G48A", 0.952),
    ("C4U G56A", 0.934),
    ("A20C C24U G68C", 0.542),
    ("U19C A37U C62A U64C", 0.725),
]

Which yeast fitness value is on record for C27G A36C C46U G51C ?
0.54

I am curious: what yeast fitness value has been reported for G9A C30U G44A ?
0.615

If you can, please state the reported yeast fitness value of A37C A42C C66U .
0.712

Which yeast fitness value is on record for U3C G25C C49U ?
0.758

Reported yeast fitness, variant U8C G41C : ____
0.88
